# TARGET_OR_SYSTEM: M4 muscarinic receptor (Homo sapiens, UniProt P08173)
# Construct: expressed in transfected cells; host or cells: CHO (M4-CHO)
# Sequence (P08173 whole entry): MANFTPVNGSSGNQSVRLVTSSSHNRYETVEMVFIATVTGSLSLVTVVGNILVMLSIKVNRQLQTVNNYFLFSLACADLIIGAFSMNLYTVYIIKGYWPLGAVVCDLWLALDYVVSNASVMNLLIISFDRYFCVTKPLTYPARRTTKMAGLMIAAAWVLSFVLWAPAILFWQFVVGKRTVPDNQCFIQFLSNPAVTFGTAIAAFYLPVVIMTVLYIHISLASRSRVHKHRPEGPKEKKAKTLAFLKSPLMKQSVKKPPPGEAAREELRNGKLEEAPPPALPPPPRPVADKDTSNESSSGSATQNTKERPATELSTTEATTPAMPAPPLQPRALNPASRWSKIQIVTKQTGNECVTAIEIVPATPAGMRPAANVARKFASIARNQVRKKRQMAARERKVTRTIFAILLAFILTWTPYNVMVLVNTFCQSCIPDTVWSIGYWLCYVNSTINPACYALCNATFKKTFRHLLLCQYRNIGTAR
# ASSAY_PROCEDURE: Functional mobilization of intracellular calcium (FLIPR) in CHO cells expressing M4
# Type: cell-based
# RUN_PARAMETERS: CHO; 100% efficacy = maximum response obtained with the Carbachol control
REPORTED_ENDPOINT: Emax

# count of solved cases: 4
COMPOUND: CC(C)CCN1CCC2(CC[C@H](N(C)C(=O)N(C)C)c3ccccc32)CC1 [compound 206]
REPORTED_ENDPOINT: Emax
RECORDED_RESULT: 25 to 100%
//
COMPOUND: CC(C)(C)OC(=O)N1CCC2(CC1)C[C@H](NC(=O)c1ccccc1)c1ccccc12 [compound 255]
REPORTED_ENDPOINT: Emax
RECORDED_RESULT: < 25%
//
COMPOUND: CCN(C(C)=O)[C@H]1CCC2(CCN(CCC(C)(C)C)CC2)c2ccccc21 [compound 211]
REPORTED_ENDPOINT: Emax
RECORDED_RESULT: 25 to 100%
//
COMPOUND: CC(C)(C)CCN1CCC2(CC[C@H](NC(=O)Cc3cccnc3)c3ccccc32)CC1 [compound 195]
REPORTED_ENDPOINT: Emax
RECORDED_RESULT: 25 to 100%

Item CN(C)C(=O)N[C@H]1CC2(CCN(CCC(C)(C)C)CC2)c2ccccc21 [compound 297] was tested on M4 muscarinic receptor (Homo sapiens, UniProt P08173); the reported Emax is < 25%

Item CC/C=C\CCCCCCN1CCC2(CC1)C[C@H](NC(C)=O)c1ccccc12 [compound 248] was tested on M4 muscarinic receptor (Homo sapiens, UniProt P08173); the reported Emax is 25 to 100%

====

Documented pEC50 across a set of molecules
# TARGET_OR_SYSTEM: UniProt P20309
# Sequence (P20309 whole entry): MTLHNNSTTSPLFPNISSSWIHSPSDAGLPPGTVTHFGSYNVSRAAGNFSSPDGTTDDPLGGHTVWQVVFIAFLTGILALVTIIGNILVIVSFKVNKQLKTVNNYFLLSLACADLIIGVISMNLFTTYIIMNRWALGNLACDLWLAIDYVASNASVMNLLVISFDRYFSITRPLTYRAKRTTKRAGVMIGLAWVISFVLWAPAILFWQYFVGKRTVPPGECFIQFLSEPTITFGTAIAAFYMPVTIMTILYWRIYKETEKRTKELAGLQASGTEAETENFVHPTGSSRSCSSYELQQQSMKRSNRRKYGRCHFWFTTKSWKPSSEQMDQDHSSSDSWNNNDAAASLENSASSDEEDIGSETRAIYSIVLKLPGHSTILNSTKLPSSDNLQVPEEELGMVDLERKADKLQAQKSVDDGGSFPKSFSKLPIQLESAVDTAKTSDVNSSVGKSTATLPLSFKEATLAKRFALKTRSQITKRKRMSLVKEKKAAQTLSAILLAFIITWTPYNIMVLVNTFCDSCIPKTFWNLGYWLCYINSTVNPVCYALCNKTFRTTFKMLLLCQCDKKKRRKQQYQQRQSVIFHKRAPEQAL
# ASSAY_PROCEDURE: Functional mobilization of intracellular calcium (FLIPR) in CHO cells expressing M3
# RUN_PARAMETERS: CHO cells expressing M3, FLIPR calcium
pEC50: −log10 of the molar value.

# count of solved cases: 5
MOLECULE: CC(=O)N[C@H](C)C(=O)N[C@@H]1CCC2(CCN(CCC(C)(C)C)CC2)c2ccccc21 [compound 14]
TARGET_OR_SYSTEM: UniProt P20309
pEC50: < 5.30
--
MOLECULE: CC(=O)N1CCCC[C@H]1C(=O)N[C@H]1CCC2(CCN(CCC(C)(C)C)CC2)c2cc(F)ccc21 [compound 83]
TARGET_OR_SYSTEM: UniProt P20309
pEC50: < 5.30
--
MOLECULE: COC(C)(C)CCCC(C)CCN1CCC2(CC[C@H](NC(=O)N(C)C)c3ccccc32)CC1 (some centres unmarked) [compound 19]
TARGET_OR_SYSTEM: UniProt P20309
pEC50: < 5.30
--
MOLECULE: CCOCC(=O)N[C@H]1CCC2(CCN(CCC(C)(C)C)CC2)c2ccccc21 [compound 70]
TARGET_OR_SYSTEM: UniProt P20309
pEC50: < 5.30
--
MOLECULE: CC(=O)N1CCC(C(=O)N[C@H]2CCC3(CCN(CCC(C)(C)C)CC3)c3cc(F)ccc32)CC1 [compound 81]
TARGET_OR_SYSTEM: UniProt P20309
pEC50: < 5.30

What the record says about CC(C)(C)CCN1CCC2(CC[C@H](NC(=O)C3CCCO3)c3ccccc32)CC1 (some centres unmarked) [compound 31] : pEC50 is < 5.30

What the record says about CC(C)CCN1CCC2(CC[C@H](N3CCCC3=O)c3ccccc32)CC1 [compound 90] : pEC50 is < 5.30

What the record says about CC(=O)N[C@H]1CCC2(CCN(CCC(C)CC(C)(C)C)CC2)c2ccccc21 (some centres unmarked) [compound 45] : pEC50 is < 5.30

====

# TARGET_OR_SYSTEM: M4 muscarinic receptor (Homo sapiens, UniProt P08173)
# ASSAY_PROCEDURE: Functional mobilization of intracellular calcium (FLIPR) in CHO cells expressing M4
# RUN_PARAMETERS: CHO cells expressing M4, FLIPR calcium
Documented EC50 across a set of compounds

COMPOUND: CCC(CC)CN1CCC2(CC[C@H](NC(C)=O)c3ccccc32)CC1
EC50: < 2000 nM
//
COMPOUND: CC(=O)N1CCC[C@H]1C(=O)N[C@@H]1CCC2(CCN(CCC(C)(C)C)CC2)c2ccccc21
EC50: < 2000 nM
//
COMPOUND: CC(C)(C)CCN1CCC2(CC[C@H](NC(=O)C3CC3)c3ccc(F)cc32)CC1
EC50: < 2000 nM
//
COMPOUND: CCOCC(=O)N[C@H]1CCC2(CCN(CCC(C)(C)C)CC2)c2ccccc21
EC50: < 2000 nM
//
COMPOUND: CC(C)(C)CCN1CCC2(CC[C@H](NC(=O)C3CC(=O)N3)c3ccc(F)cc32)CC1 (some centres unmarked)
EC50: < 2000 nM

What the record says about CC(C)(C)CCN1CCC2(CC[C@@H](NC(=O)CCN3CCCC3=O)c3ccc(F)cc32)CC1 : EC50 is < 2000 nM

What the record says about CN1CC(C(=O)N[C@@H]2CCC3(CCN(CCC(C)(C)C)CC3)c3ccccc32)CC1=O (some centres unmarked) : EC50 is < 2000 nM

What the record says about CCN(C(=O)CCNC(C)=O)[C@@H]1CCC2(CCN(CCC(C)(C)C)CC2)c2ccccc21 : EC50 is < 2000 nM

====

# TARGET_OR_SYSTEM: UniProt P08172
# ASSAY_PROCEDURE: Functional mobilization of intracellular calcium (FLIPR) in CHO cells expressing M2
# RUN_PARAMETERS: CHO cells expressing M2, FLIPR calcium
# Description: Functional Mobilization of Intracellular Calcium to Determine Muscarinic Receptor Activity: […] Compounds are prepared at a 2× fold concentration in a 96-well plate (round bottom, Costar Corning cat#3656), by reconstituting the pre-spotted compounds in bath 1 containing 1 mM probenecid. […] In both assay modes, the fluorescence is recorded for 60 sec (excitation wavelength is […] and emission wavelength 540 nm) using the FLIPR 3 instrument. […]
pEC50: −log10 of the molar value.
Documented pEC50 across a set of compounds

# count of solved cases: 6
COMPOUND: CC(C)(C)CCN1CCC2(CC[C@H](NC(=O)C3CC(=O)N3)c3ccc(F)cc32)CC1 (stereo partly drawn) [compound 67]
REPORTED_ENDPOINT: pEC50
RECORDED_RESULT: > 5.70
//
COMPOUND: CC(C)(C)CCN1CCC2(CC[C@@H](N3CCCC3=O)c3ccc(F)cc32)CC1 [compound 168]
REPORTED_ENDPOINT: pEC50
RECORDED_RESULT: < 5.30
//
COMPOUND: CC(C)(C)CCN1CCC2(CC[C@@H](NC(=O)CCN3CCCC3=O)c3ccc(F)cc32)CC1 [compound 29]
REPORTED_ENDPOINT: pEC50
RECORDED_RESULT: > 5.70
//
COMPOUND: CCC(CC)N1CCC2(CC[C@H](NC(C)=O)c3ccccc32)CC1 [Compound No. 61]
REPORTED_ENDPOINT: pEC50
RECORDED_RESULT: < 5.30
//
COMPOUND: CC(C)(C)CCN1CCC2(CC[C@H](NC(=O)C3CCN(C(=O)c4ccccc4)CC3)c3ccccc32)CC1 [compound 36]
REPORTED_ENDPOINT: pEC50
RECORDED_RESULT: < 5.30
//
COMPOUND: CCN(C(=O)CCC(=O)NC)[C@H]1CCC2(CCN(CCC(C)(C)C)CC2)c2ccccc21 [compound 127]
REPORTED_ENDPOINT: pEC50
RECORDED_RESULT: 5.30 to 5.70

What the record says about CC(C)C[C@@H](C(=O)N[C@H]1CCC2(CCN(CCC(C)(C)C)CC2)c2ccccc21)N1CCCC1=O [compound 23] : pEC50 is < 5.30

What the record says about CC(C)(C)CCN1CCC2(CC[C@H](NC(=O)CCN3CCCC3=O)c3ccccc32)CC1 [compound 124] : pEC50 is > 5.70

What the record says about CC(=O)N1CCCC[C@H]1C(=O)N[C@@H]1CCC2(CCN(CCC(C)(C)C)CC2)c2cc(F)ccc21 [compound 72] : pEC50 is 5.30 to 5.70

====

Documented EC50 across a set of compounds
# TARGET_OR_SYSTEM: M2 muscarinic receptor (Homo sapiens, UniProt P08172)
# Sequence (P08172 whole entry): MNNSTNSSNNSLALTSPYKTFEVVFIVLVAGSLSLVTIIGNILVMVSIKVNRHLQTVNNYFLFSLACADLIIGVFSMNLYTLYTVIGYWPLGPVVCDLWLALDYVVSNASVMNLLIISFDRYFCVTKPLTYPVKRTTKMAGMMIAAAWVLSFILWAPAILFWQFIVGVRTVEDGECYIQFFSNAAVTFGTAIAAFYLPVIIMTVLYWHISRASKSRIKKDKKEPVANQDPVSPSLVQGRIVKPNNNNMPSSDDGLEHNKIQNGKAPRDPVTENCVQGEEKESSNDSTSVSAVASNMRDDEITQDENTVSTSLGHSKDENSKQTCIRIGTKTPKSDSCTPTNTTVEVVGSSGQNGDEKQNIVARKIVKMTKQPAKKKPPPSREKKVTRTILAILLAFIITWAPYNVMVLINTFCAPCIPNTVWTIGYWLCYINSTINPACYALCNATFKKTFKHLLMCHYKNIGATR
# ASSAY_PROCEDURE: Functional mobilization of intracellular calcium (FLIPR) in CHO cells expressing M2
# RUN_PARAMETERS: CHO cells expressing M2, FLIPR calcium

COMPOUND: CC(CC(C)(C)C)N1CCC2(CC[C@H](NC(=O)N(C)C)c3ccccc32)CC1 (stereo partly drawn)
RECORDED_RESULT: > 5 µM
//
COMPOUND: CCC(=O)N[C@@H]1CCC2(CCN(CCC(C)(C)C)CC2)c2cc(F)ccc21
RECORDED_RESULT: > 5 µM
//
COMPOUND: CCC(=O)N1CCCC(C(=O)N[C@@H]2CCC3(CCN(CCC(C)(C)C)CC3)c3ccccc32)C1 (stereo partly drawn)
RECORDED_RESULT: > 5 µM
//
COMPOUND: CCN(C(=O)Cc1cccnc1)[C@H]1CCC2(CCN(CCC(C)(C)C)CC2)c2ccccc21
RECORDED_RESULT: 2 to 5 µM

What the record says about CC(=O)N(C)[C@H]1CCC2(CCN(CCC(C)(C)C)CC2)c2ccccc21 : EC50 is > 5 µM

What the record says about CC(=O)N[C@H](C)C(=O)N[C@@H]1CCC2(CCN(CCC(C)(C)C)CC2)c2ccccc21 [compound 14] : EC50 is 2 to 5 µM

What the record says about CSC(C)CCN1CCC2(CC[C@H](NC(C)=O)c3ccccc32)CC1 (stereo partly drawn) : EC50 is > 5 µM

What the record says about CC(=O)N[C@@H]1c2ccccc2C2(CCN(CCC(C)(C)C)CC2)CC1(F)F : EC50 is < 2 µM

What the record says about CC(=O)N(C(C)C)[C@H]1CCC2(CCN(CCC(C)C)CC2)c2ccccc21 : EC50 is > 5 µM

What the record says about CC(C)(C)CCN1CCC2(CC[C@@H](NC(=O)C3CCCO3)c3ccc(F)cc32)CC1 (stereo partly drawn) : EC50 is < 2 µM

What the record says about CCC(=O)N(C)[C@H]1CCC2(CCN(CCC(C)(C)C)CC2)c2ccccc21 : EC50 is > 5 µM

Each recorded value in this set is attributed to patent US8003660B2.
